Consider the following compounds; for each one, report its GI50.
- Test system: SK-MEL-5
- test-name: NCI tumour cell line growth inhibition, 48 h
The source made the active and inactive calls. Cut-off read from the data, not from the text of the source: active = GI50 up to about 1.1 µM and inactive = higher.

Query block: Value lookup for GI50; key = COc1ccc(Nc2c[nH]c(=O)[nH]c2=O)cc1
Result block: > 100 µM (inactive)

Query block: Value lookup for GI50; key = CC1=C2C(=O)c3ccccc3C2=C(C)S(=O)(=O)O1
Result block: > 10 µM (inactive)

Query block: Value lookup for GI50; key = Nc1ccccc1SC(C[N+](=O)[O-])c1ccc2c(c1)OCO2 (stereo unspecified)
Result block: 3.26 µM (inactive)

Query block: Value lookup for GI50; key = Cc1cccc2c1[C@]13OC(C)[C@]4(C)CC5OC(=O)[C@@]1(C)[C@@H]5[C@]34C(=O)O2 (stereo partly specified)
Result block: > 100 µM (inactive)

Query block: Value lookup for GI50; key = O=C1Nc2ccccc2/C1=N/Nc1ccc([N+](=O)[O-])cc1[N+](=O)[O-]
Result block: 10.6 µM (inactive)

Query block: Value lookup for GI50; key = Nc1ccc(-c2nc3ccccc3s2)cc1C#Cc1ccccc1
Result block: 17 µM (inactive)

Query block: Value lookup for GI50; key = COC1OC(Cn2cc([N+](=O)[O-])nc2C)C(O)C(O)C1O (stereo unspecified)
Result block: > 100 µM (inactive)

Query block: Value lookup for GI50; key = C=CCSSCC=C
Result block: 35.4 µM (inactive)

Query block: Value lookup for GI50; key = Cc1nc2sc3ccccc3n2c(=O)c1/N=N/c1ccc(Cl)cc1
Result block: > 100 µM (inactive)

Query block: Value lookup for GI50; key = Cc1cccc(C(O)c2cccnc2)c1O (stereo unspecified)
Result block: 76.4 µM (inactive)

Query block: Value lookup for GI50; key = CCOC(=O)C(NC(=O)c1ccccc1)(N1CCN(c2cc3c(cc2F)c(=O)c(C(=O)O)cn3CC)CC1)C(F)(F)F (stereo unspecified)
Result block: 22.9 µM (inactive)

---

Consider the following compounds; for each one, report its GI50.
- Tested on: EKVX
- test-name: NCI tumour cell line growth inhibition, 48 h
The source made the active and inactive calls. Rule as the data show it: active = GI50 up to about 1.1 µM and inactive = higher.

Query block: Value lookup for GI50; key = Cc1nc2c(o1)C(=O)c1ccccc1/C2=N/c1ccccn1
Result block: 17.7 µM (inactive)

Query block: Value lookup for GI50; key = Clc1ccc(OCc2nnc(CCCCCCCCc3nnc(COc4ccc(Cl)cc4Cl)o3)o2)c(Cl)c1
Result block: > 100 µM (inactive)

Query block: Value lookup for GI50; key = Nc1ccc(-c2nc3ccccc3s2)cc1C#Cc1ccccc1
Result block: 20.7 µM (inactive)

Query block: Value lookup for GI50; key = CN(C)C(=C1c2cc([N+](=O)[O-])ccc2-c2ccc([N+](=O)[O-])cc21)N(C)C
Result block: > 100 µM (inactive)

Query block: Value lookup for GI50; key = CCOC(=O)c1c2cccccc2n2c(=O)cc(C)nc12
Result block: > 100 µM (inactive)

Query block: Value lookup for GI50; key = O=[N+]([O-])c1ccc2[nH]c(=S)[nH]c(=S)c2c1
Result block: > 100 µM (inactive)

Query block: Value lookup for GI50; key = COc1ccc2cc(NC(=O)N/N=C\c3ccc(Cl)cc3)ccc2c1
Result block: > 100 µM (inactive)

Query block: Value lookup for GI50; key = Clc1nc2c(N3CCCC3)nc(N3CCNCC3)nc2[nH]1
Result block: 17.3 µM (inactive)

Query block: Value lookup for GI50; key = COC(=O)/C(=N\N)C(C(=O)C(=O)Nc1cccc([N+](=O)[O-])c1)c1nc2ccc(C(=O)c3ccccc3)cc2nc1O (stereo not given)
Result block: > 100 µM (inactive)

Query block: Value lookup for GI50; key = Nc1ccc(C(=O)N/C(=C\C=C\c2ccco2)c2nc3c4c(ccc3[nH]2)C(=O)c2ccccc2C4=O)cc1
Result block: 28.1 µM (inactive)

Query block: Value lookup for GI50; key = COc1ccc(-c2c3ccccc3c(-c3ccc(OCCBr)cc3)c3ccccc23)cc1
Result block: > 100 µM (inactive)

Query block: Value lookup for GI50; key = CC(C)(C)c1ccc(C(O)(c2ccc(C(C)(C)C)cc2)c2ccc(C(C)(C)C)cc2)cc1
Result block: > 100 µM (inactive)

Query block: Value lookup for GI50; key = CCOC(=S)SCC(=O)O
Result block: > 100 µM (inactive)

Query block: Value lookup for GI50; key = CC1=CC[C@H](C)C(C)(C)C1/C=C/C(C)=C/CC[C@@]1(CO)[C@H](CCCO)/C(=C(/C)C=O)CC[C@]1(C)O (stereo not given in full)
Result block: 2.2 µM (inactive)

Query block: Value lookup for GI50; key = COc1ccccc1NC(=O)C1=C(C)NC(C)=C(C(=O)Nc2ccccc2OC)C1/C=C/c1ccccc1
Result block: 89.3 µM (inactive)

Query block: Value lookup for GI50; key = CCOC(=O)C(C(=O)OCC)c1cc(-c2cc3ccccc3o2)oc(=O)c1C#N
Result block: 39.7 µM (inactive)

Query block: Value lookup for GI50; key = O=c1c2ccccc2c(=O)n2n1-c1cccc(c1)CSSCc1cccc-2c1
Result block: > 10 µM (inactive)

Query block: Value lookup for GI50; key = CCOP(=O)(OCC)c1cc(-c2ccccc2)ccc1N
Result block: 41.5 µM (inactive)

Query block: Value lookup for GI50; key = CN1CCN(CCCCNc2cc3c4ccccc4c(NCCCCN4CCN(C)CC4)cc3c3ccccc23)CC1
Result block: 7.43 µM (inactive)

Query block: Value lookup for GI50; key = CN(CCCNC(=O)c1nn(-c2ccc(Cl)cc2Cl)c2c1ccc1ccccc12)CCCNC(=O)c1nn(-c2ccc(Cl)cc2Cl)c2c1ccc1ccccc12
Result block: 1.69 µM (inactive)

---

Consider the following compounds; for each one, report its GI50.
- System: Hs-578T
- test-name: NCI tumour cell line growth inhibition, 48 h
Activity calls are given as the source filed them. No stated cut-off is given here; in the data, active = GI50 up to about 1.1 µM and inactive = higher.

Query block: Value lookup for GI50; key = Nc1nnc2ccc(Cl)cc2[n+]1[O-]
Result block: 41.7 µM (inactive)

Query block: Value lookup for GI50; key = CCOC(=O)NCC(=O)NCC(=O)NCC(N)=O
Result block: > 100 µM (inactive)

Query block: Value lookup for GI50; key = O=c1c(-c2ccccc2)c(SCCN2CCCCCC2)n(-c2ccccc2)c(=S)n1-c1ccccc1
Result block: 39.8 µM (inactive)

Query block: Value lookup for GI50; key = C=CCSSCC=C
Result block: 27.9 µM (inactive)

Query block: Value lookup for GI50; key = CC1CCC2C(C(=O)O[C@H]3C4C=CO[C@@H](OC5OC(CO)C(O)C(O)C5O)C4[C@@]4(CO)O[C@@H]34)=CO[C@@H](OC3OC(CO)C(O)C(O)C3O)C12 (stereo not given in full)
Result block: > 10 µM (inactive)

---

- Test system: HOP-92
- test-name: NCI tumour cell line growth inhibition, 48 h
Activity calls are given as the source filed them. Cut-off read from the data, not from the text of the source: active = GI50 up to about 1.1 µM and inactive = higher.
Your answer must be one of the following: active, inactive

Query block: Lab log entry: C=C(C)[C@H]1CC[C@@]23O[C@@H]2[C@@H](C[C@@]2(C)CC(=O)[C@H](CC(=O)C1)O2)OC(=O)[C@@]12CC[C@H](C(=C)C)CC(=O)C[C@H]4O[C@](C)(CC4=O)C[C@@H](OC3=O)[C@@H]1O2 [SINGARDIN] — outcome as called in the assay?
Result block: inactive

Query block: Lab log entry: C=C(Br)C(Cl)(CBr)CCC(Br)C(C)(C)Cl (stereo not given) — outcome as called in the assay?
Result block: inactive

Query block: Lab log entry: COC1(c2ccc(Cl)cc2)SC=C(C)n2c1noc2=O (stereo not given) — outcome as called in the assay?
Result block: inactive

Query block: Lab log entry: CC#CC(O)(C(=O)OC1CCCN(C)C1)C1=CC=CCC1 (stereo not given) — outcome as called in the assay?
Result block: inactive

Query block: Lab log entry: Cn1c(=O)c2c([nH]/c(=N/N=C/c3ccccc3C(=O)O)n2C)n(C)c1=O — outcome as called in the assay?
Result block: inactive

Query block: Lab log entry: COc1c(C)c(OCC=C(C)C)cc(CO)c1CO — outcome as called in the assay?
Result block: inactive

Query block: Lab log entry: COc1c(C)c(C/C=C(\C)CCCCO)c(OC)c2ccccc12 — outcome as called in the assay?
Result block: inactive

Query block: Lab log entry: O=c1c(=O)c2cscc2c1=O — outcome as called in the assay?
Result block: inactive

Query block: Lab log entry: Cc1ccc(S(=O)(=O)NC(=O)NC(CO)C(=O)O)cc1 (stereo not given) — outcome as called in the assay?
Result block: inactive

Query block: Lab log entry: CC1(C)C(=O)N=C(N)N1C(=O)OCc1ccccc1 — outcome as called in the assay?
Result block: inactive

Query block: Lab log entry: CC(NC1=NCCO1)c1ccsc1 (stereo not given) — outcome as called in the assay?
Result block: inactive

Query block: Lab log entry: NNC(=O)C(=O)N/N=C(\CCC(=O)Nc1ccc(Cl)cc1)Cc1nc2ccccc2s1 — outcome as called in the assay?
Result block: inactive

Query block: Lab log entry: CN1CCN(CN2C(=O)C3C4C=CC(C3C2=O)C2C(=O)N(CN3CCN(C)CC3)C(=O)C42)CC1 (stereo not given) — outcome as called in the assay?
Result block: inactive

Query block: Lab log entry: Cc1nc2nc3c(ncn3COCCO)c(O)n2c1C(c1ccccc1)(c1ccccc1)c1ccccc1 — outcome as called in the assay?
Result block: inactive

Query block: Lab log entry: Cc1ccc2nc3c(C)cc(=O)cc-3sc2c1 — outcome as called in the assay?
Result block: inactive

Query block: Lab log entry: O=C(CC(=O)c1ccccc1)C(=O)Nc1ccc(Cl)cc1 — outcome as called in the assay?
Result block: inactive

Query block: Lab log entry: CC(C)=CCC(OC(=O)C=C(C)C)c1cc(O)c2c(c1O)C(=O)C=CC2=O (stereo not given) — outcome as called in the assay?
Result block: active

Query block: Lab log entry: CC(=O)C1=C(c2ccccc2)N(C2OC(CO)C(O)C(O)C2O)C(S)=C(C#N)C1c1ccc(Cl)cc1 (stereo not given) — outcome as called in the assay?
Result block: inactive

Query block: Lab log entry: N#CC1=CNc2sccc2S1(=O)=O — outcome as called in the assay?
Result block: inactive

Query block: Lab log entry: O=c1c(-c2ccccc2)c(SCCN2CCCCCC2)n(-c2ccccc2)c(=S)n1-c1ccccc1 — outcome as called in the assay?
Result block: inactive

Query block: Lab log entry: COC(=O)C1CCC(=O)N1C(c1ccccc1)c1ccc(OC)c(OC)c1 (stereo not given) — outcome as called in the assay?
Result block: inactive

Query block: Lab log entry: O=C1c2ccccc2C(=O)c2c(NCCCNCCO)ccc(NCCCNCCO)c21 — outcome as called in the assay?
Result block: inactive

Query block: Lab log entry: Cn1c(=O)c(C2c3ccccc3Oc3c2c(=O)n(C)c2ccccc32)c(O)c2ccccc21 (stereo not given) — outcome as called in the assay?
Result block: inactive

Query block: Lab log entry: O=C1CSC(c2ccccc2[N+](=O)[O-])N1c1ccc(-n2c(-c3ccccc3)nc3ccccc3c2=O)cc1 (stereo not given) — outcome as called in the assay?
Result block: inactive

Query block: Lab log entry: O=C1CN2C(c3ccccc3)=NN(c3ccc([N+](=O)[O-])cc3)C2(c2ccccc2)c2cc(Cl)ccc2N1CC1CC1 (stereo not given) — outcome as called in the assay?
Result block: inactive

Query block: Lab log entry: NCCCCc1cc(O)c2c(c1O)C(=O)c1ccccc1C2=O — outcome as called in the assay?
Result block: inactive

Query block: Lab log entry: N=C(N)SCCCN — outcome as called in the assay?
Result block: inactive

Query block: Lab log entry: Cc1cnc2c(c1C)C(=O)c1ccccc1C2=O — outcome as called in the assay?
Result block: inactive

Query block: Lab log entry: O=C(CC(=O)Nc1ccccc1)NNC(Sc1ccccc1)c1cc(/N=N/c2ccc(Br)cc2)ccc1O (stereo not given) — outcome as called in the assay?
Result block: inactive

Query block: Lab log entry: Cc1ccc(/C=N/Nc2cc(C)c3ccccc3n2)s1 — outcome as called in the assay?
Result block: inactive

Query block: Lab log entry: Cc1c(C#N)c2nc3ccccc3n2c(=O)/c1=C/Nc1ccc(Cl)cc1 — outcome as called in the assay?
Result block: inactive

Query block: Lab log entry: COc1cc2c3c(c4cc(OC)c(OC)cc4c2cc1OC)[C@H](O)[C@@H]1CCCN1C3 — outcome as called in the assay?
Result block: active

Query block: Lab log entry: CCOC(=O)C(NC(=O)CC(C)C)(N1CCN(c2cc3c(cc2F)c(=O)c(C(=O)O)cn3C2CC2)CC1)C(F)(F)F (stereo not given) — outcome as called in the assay?
Result block: inactive

Query block: Lab log entry: O=c1c2ccccc2nc(-c2ccccc2)n1NC(=S)Nc1ccc(Cl)cc1[N+](=O)[O-] — outcome as called in the assay?
Result block: inactive

Query block: Lab log entry: O=C1CC(c2ccc([N+](=O)[O-])cc2)C2(C(=O)NC(=S)NC2=O)C(c2ccc([N+](=O)[O-])cc2)C1 (stereo not given) — outcome as called in the assay?
Result block: inactive

Query block: Lab log entry: O=c1c2ccccc2nc(-c2ccccc2)n1NC1OC(CO)C(O)C(O)C1O (stereo not given) — outcome as called in the assay?
Result block: inactive

Query block: Lab log entry: Cc1ccc(/C=C2\CCCC(CN(C)C)C2=O)cc1 (stereo not given) — outcome as called in the assay?
Result block: inactive

Query block: Lab log entry: CC(=O)O[C@H]1C(=O)[C@@]2(C)C(C(OC(=O)c3ccccc3)[C@]3(O)CC(OC(=O)[C@H](OC(=O)CCC(=O)O)C(NC(=O)c4ccccc4)c4ccccc4)C(C)=C1C3(C)C)C1(OC(C)=O)COC1C[C@@H]2O (stereo not given in full) — outcome as called in the assay?
Result block: active

Query block: Lab log entry: O=c1c2ccccc2c(=O)n2n1-c1cccc(c1)CSSCc1cccc-2c1 — outcome as called in the assay?
Result block: inactive

Query block: Lab log entry: Cn1c2ccccc2n2c3ncccc3c(=O)cc12 — outcome as called in the assay?
Result block: inactive
